Every entry's value here was drawn from PubChem BioAssay (NCI).

Test system: SK-MEL-28 melanoma
protocol_details: NCI tumour cell line growth inhibition, 48 h
Assign TGI to each entry below.

Field: example entries. Status: answers known.
molecule | result
CC1(C)C=CC(=O)C(O)C(C)(C)C1=O (centres undefined) | > 100 µM
CO/N=C(/C(=O)OC)c1ccccc1COc1ccccc1C(F)(F)F | > 100 µM
COc1ccc2oc(=N)c(C(=O)Nc3ccccc3)cc2c1 | > 100 µM

I have 2 molecules here; please give me TGI for each one.
1. CCCN(CCC)c1c([N+](=O)[O-])cc(C(=O)N(CC)CC)cc1[N+](=O)[O-]
2. NC(=O)c1cc(I)ccc1NC(=O)/C=C/c1ccccc1

*A*
1. 64.6 µM
2. > 86.8 µM

I have 4 molecules here; please give me TGI for each one.
1. C/C1=C\[C@H](C)C[C@H](C)OC(=O)[C@H](C)NC(=O)[C@@H](Cc2ccc(O)c(Br)c2)N(C)C(=O)[C@H](C)NC(=O)[C@@H](C)C1
2. CN1CC[C@]2(c3cccc(O)c3)CC(=O)/C(=C/c3ccccc3)[C@@H]1C2
3. CSc1csc(-c2ccc(-c3ccc(-c4cc(SC)cs4)s3)s2)c1
4. CCOc1ccc(NC(=O)CC2SC(=Nc3ccc(C)cc3C)NC2=O)cc1 (centres undefined)

*A*
> 10.6 µM
13.4 µM
> 100 µM
> 100 µM
